// reported specificity ELISA, percent binding relative to Acro S1 for each item listed
# STUDY SYSTEM: T1, COVID S1 RBD Fc fusion (Antigen 1) (SARS-CoV-2, UniProt P0DTC2 319-541)
# T1 construct: domain: S1 RBD
# METHOD SUMMARY: phage ELISA
Field format: number, assumed %, no unit text.

1. variant 2-1 (antibody, V domains shown) VH: EVQLLESGGGLVQPGGSLRLSCAASGFTFSNYATDWVRQAPGKGLEWVSIISGSGGATYYADSVKGRFTISRDNSKNTLYLQMNSLRAEDTAVYYCAKGGYCSSDTCWWEYWLDPWGQGTLVTVSS VL: DIQMTQSPSSLSASVGDRVTITCRASQSIHRFLNWYQQKPGKAPKLLIYAASNLHSGVPSRFSGSGSGTDFTLTISSLQPEDFATYYCQQSYGLPPTFGQGTKVEIK = 93.7
2. variant 2-9 (antibody, V domains shown) VH: EVQLLESGGGLVQPGGSLRLSCAASGFTFPRYAMSWVRQAPGKGLEWVSTISGSGSTTYYADSVKGRFTISRDNSKNTLYLQMNSLRAEDTAVYYCARLIDAFDIWGQGTLVTVSS VL: DIQMTQSPSSLSASVGDRVTITCRASQRIGTYLNWYQQKPGKAPKLLIYAASNLEGGVPSRFSGSGSGTDFTLTISSLQPEDFATYYCQQNYSTTWTFGQGTKVEIK = 101
3. variant 2-4 (antibody, V domains shown) VH: EVQLLESGGGLVQPGGSLRLSCAASGFTFSDFAMAWVRQAPGKGLEWVSAISGSGDITYYADSVKGRFTISRDNSKNTLYLQMNSLRAEDTAVYYCAREADGLHSPWHFDLWGQGTLVTVSS VL: DIQMTQSPSSLSASVGDRVTITCRASQSIDTYLNWYQQKPGKAPKLLIYAASALASGVPSRFSGSGSGTDFTLTISSLQPEDFATYYCQQSYSAPPYTFGQGTKVEIK = 103
4. variant 2-12 (antibody, V domains shown) VH: EVQLLESGGGLVQPGGSLRLSCAASGFTFSDYPMNWVRQAPGKGLEWVSTISGSGGITFYADSVKGRFTISRDNSKNTLYLQMNSLRAEDTAVYYCVRHDEYSFDYWGQGTLVTVSS VL: DIQMTQSPSSLSASVGDRVTITCRASQSIDNYLNWYQQKPGKAPKLLIYGVSALQSGVPSRFSGSGSGTDFTLTISSLQPEDFATYYCQQSHSAPPYFFGQGTKVEIK = 101
5. variant 2-2 (antibody, V domains shown) VH: EVQLLESGGGLVQPGGSLRLSCAASGFTFSRHAMNWVRQAPGKGLEWVSGISGSGDETYYADSVKGRFTISRDNSKNTLYLQMNSLRAEDTAVYYCARDLPASYYDSSGYYWHNGMDVWGQGTLVTVSS VL: DIQMTQSPSSLSASVGDRVTITCRASQTINTYLNWYQQKPGKAPKLLIYSASTLQSGVPSRFSGSGSGTDFTLTISSLQPEDFATYYCQQSYSTFTFGQGTKVEIK = 100

Consider the binder variant 2-5 (antibody, V domains shown) VH: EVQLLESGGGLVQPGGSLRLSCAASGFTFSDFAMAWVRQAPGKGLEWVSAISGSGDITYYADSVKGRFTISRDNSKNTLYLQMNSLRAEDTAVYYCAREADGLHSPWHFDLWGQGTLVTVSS VL: DIQMTQSPSSLSASVGDRVTITCRASQSIHTYLNWYQQKPGKAPKLLIYAASALASGVPSRFSGSGSGTDFTLTISSLQPEDFATYYCQQSYSAPPYTFGQGTKVEIK and give its measured specificity ELISA, percent binding relative to Acro S1.
93.7

Consider the binder variant 2-13 (antibody, V domains shown) VH: EVQLLESGGGLVQPGGSLRLSCAASGFTFSDYPMNWVRQAPGKGLEWVSAISGSGDNTYYADSVKGRFTISRDNSKNTLYLQMNSLRAEDTAVYYCVRHDEYSFDYWGQGTLVTVSS VL: DIQMTQSPSSLSASVGDRVTITCRASQSIDTYLNWYQQKPGKAPKLLIYGASALESGVPSRFSGSGSGTDFTLTISSLQPEDFATYYCQQSHSAPPYFFGQGTKVEIK and give its measured specificity ELISA, percent binding relative to Acro S1.
118

The values you see were collected from patent US20210355194A1.
